# ASSAYED_SYSTEM: M1 muscarinic receptor (Homo sapiens)
# Sequence (P11229 whole entry): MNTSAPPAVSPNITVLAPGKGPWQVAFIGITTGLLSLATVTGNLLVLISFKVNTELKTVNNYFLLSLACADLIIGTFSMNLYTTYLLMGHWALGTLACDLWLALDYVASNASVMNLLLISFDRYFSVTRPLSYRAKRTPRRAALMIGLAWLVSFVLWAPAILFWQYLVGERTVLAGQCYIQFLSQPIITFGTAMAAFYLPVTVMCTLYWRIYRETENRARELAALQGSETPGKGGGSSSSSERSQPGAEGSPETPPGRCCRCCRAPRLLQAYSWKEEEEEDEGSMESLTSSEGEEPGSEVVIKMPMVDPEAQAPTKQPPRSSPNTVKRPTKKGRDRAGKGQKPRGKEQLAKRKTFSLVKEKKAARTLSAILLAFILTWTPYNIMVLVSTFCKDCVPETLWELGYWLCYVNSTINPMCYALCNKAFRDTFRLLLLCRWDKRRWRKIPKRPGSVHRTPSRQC
# PROCEDURE_TEXT: [3H]NMS competition binding, M1 CHO membranes
# Set-up: host or cells: CHO cells, stably transfected
# EXPERIMENTAL_PARAMETERS: competition with 1 nM [3H]NMS; read-out: Inhibition constants (Ki) as negative logarithms, M1 (converted)
Quick rule for you: Ki under 10 µM gets Criterion met, anything else gets Criterion not met.

Please review the following examples before continuing.
*Q* Lab log: compare recorded Ki with 10 µM; is it strictly lower for Cc1ccc(C[N+]2(C)CC=CCC2)s1.[I-] (centres unmarked) ?
*A* Criterion met

*Q* Lab log: compare recorded Ki with 10 µM; is it strictly lower for C[N+]1(Cc2ccc(Cl)s2)CC=CCC1.[I-] (centres unmarked) ?
*A* Criterion met

*Q* Lab log: compare recorded Ki with 10 µM; is it strictly lower for C[N+]1(Cc2ccc(Br)s2)CC=CCC1.[I-] (centres unmarked) ?
*A* Criterion met

*Q* Lab log: compare recorded Ki with 10 µM; is it strictly lower for "Cc1ccc(CN2CC=CCC2)s1.Cl" ?
*A* Criterion not met

New cases:
*Q* Lab log: compare recorded Ki with 10 µM; is it strictly lower for "Cc1csc(CN2CC=CCC2)c1.Cl" ?
*A* Criterion not met

*Q* Lab log: compare recorded Ki with 10 µM; is it strictly lower for "Brc1ccc(CN2CC=CCC2)s1.Cl" ?
*A* Criterion met

*Q* Lab log: compare recorded Ki with 10 µM; is it strictly lower for "C1=CCN(Cc2cccs2)CC1.Cl" ?
*A* Criterion not met

*Q* Lab log: compare recorded Ki with 10 µM; is it strictly lower for C[N+]1(Cc2cccs2)CC=CCC1.[I-] (centres unmarked) ?
*A* Criterion not met

====

Readings of RAi for the listed compounds
# ASSAYED_SYSTEM: M3 muscarinic receptor (Homo sapiens, UniProt P20309)
# Sequence (P20309 whole entry): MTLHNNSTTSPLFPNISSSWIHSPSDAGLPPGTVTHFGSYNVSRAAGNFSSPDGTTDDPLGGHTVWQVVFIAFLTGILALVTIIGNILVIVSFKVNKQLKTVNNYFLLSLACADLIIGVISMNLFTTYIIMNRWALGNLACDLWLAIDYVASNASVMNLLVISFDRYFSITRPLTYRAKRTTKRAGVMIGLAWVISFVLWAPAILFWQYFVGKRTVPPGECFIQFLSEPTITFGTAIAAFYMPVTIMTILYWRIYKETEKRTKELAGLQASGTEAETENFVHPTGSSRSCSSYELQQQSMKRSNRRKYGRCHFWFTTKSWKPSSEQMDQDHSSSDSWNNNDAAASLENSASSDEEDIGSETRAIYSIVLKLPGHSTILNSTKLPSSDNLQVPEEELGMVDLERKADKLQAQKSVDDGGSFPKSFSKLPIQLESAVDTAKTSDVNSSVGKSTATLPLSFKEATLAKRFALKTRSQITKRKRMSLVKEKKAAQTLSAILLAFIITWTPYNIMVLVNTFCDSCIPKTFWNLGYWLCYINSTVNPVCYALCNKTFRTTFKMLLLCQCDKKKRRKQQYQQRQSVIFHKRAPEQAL
# PROCEDURE_TEXT: accumulation of IPX, M3 CHO cells (M3Gq)
# Assay type: cell-based
# Set-up: host or cells: CHO cells, stably transfected
# EXPERIMENTAL_PARAMETERS: M3 (↑IPX), preferential response, relative to carbachol; Tables 2, 3, 7
Please state the value as a number alone, without comment.

Example cases with answers are listed next.
The compound Brc1ccc(CN2CC=CCC2)s1.Cl [Compound 6C] showed RAi equal to 0.0029

The compound C1=CCN(Cc2cccs2)CC1.Cl [Compound 6A] showed RAi equal to 0.0058

The compound Cc1ccc(C[N+]2(C)CC=CCC2)s1.[I-] (stereo not drawn) [Compound 7B] showed RAi equal to 0.0077

New cases:
The compound Cc1ccc(CN2CC=CCC2)s1.Cl [Compound 6B] showed RAi equal to 0.0006

The compound C[N+]1(Cc2cccs2)CC=CCC1.[I-] (stereo not drawn) [Compound 7A] showed RAi equal to 0.011

The compound Cc1csc(CN2CC=CCC2)c1.Cl [Compound 6E] showed RAi equal to 0

====

# ASSAYED_SYSTEM: M5 muscarinic receptor (Homo sapiens)
# Sequence (P08912 whole entry): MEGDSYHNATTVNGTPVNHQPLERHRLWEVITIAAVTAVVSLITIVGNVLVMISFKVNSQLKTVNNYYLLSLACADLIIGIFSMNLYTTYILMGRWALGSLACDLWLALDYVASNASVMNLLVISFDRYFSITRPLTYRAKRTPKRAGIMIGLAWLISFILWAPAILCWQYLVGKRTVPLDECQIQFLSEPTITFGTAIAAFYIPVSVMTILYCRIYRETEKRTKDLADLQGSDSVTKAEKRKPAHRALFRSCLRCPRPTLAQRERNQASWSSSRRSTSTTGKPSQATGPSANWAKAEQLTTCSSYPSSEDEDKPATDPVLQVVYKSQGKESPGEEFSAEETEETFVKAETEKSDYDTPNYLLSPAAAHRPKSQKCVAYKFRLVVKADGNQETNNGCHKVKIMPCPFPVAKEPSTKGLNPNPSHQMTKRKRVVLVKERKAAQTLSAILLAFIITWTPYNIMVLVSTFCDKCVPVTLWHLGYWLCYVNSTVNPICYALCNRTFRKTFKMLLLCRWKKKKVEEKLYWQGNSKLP
# PROCEDURE_TEXT: inhibition of forskolin-stimulated cAMP, M5 CHO cells (M5Gi)
# Format: cell-based
# Set-up: host or cells: CHO cells, stably transfected
VALUE_KIND: pEC50
Entry type: numeric. Quantity: pEC50, the -log10 of concentration in molar units.

The compound O=C1CCCN1CC#CCN1CCCC1 [oxotremorine, reference compound] showed pEC50 equal to 7.15
